Exercise: state measured IC50 for each of the molecules provided.
# assay.system: Integrin alpha-IIb/beta-3 (Homo sapiens, UniProt P05106+P08514)
# Sequence (P05106 27-788 limits assumed): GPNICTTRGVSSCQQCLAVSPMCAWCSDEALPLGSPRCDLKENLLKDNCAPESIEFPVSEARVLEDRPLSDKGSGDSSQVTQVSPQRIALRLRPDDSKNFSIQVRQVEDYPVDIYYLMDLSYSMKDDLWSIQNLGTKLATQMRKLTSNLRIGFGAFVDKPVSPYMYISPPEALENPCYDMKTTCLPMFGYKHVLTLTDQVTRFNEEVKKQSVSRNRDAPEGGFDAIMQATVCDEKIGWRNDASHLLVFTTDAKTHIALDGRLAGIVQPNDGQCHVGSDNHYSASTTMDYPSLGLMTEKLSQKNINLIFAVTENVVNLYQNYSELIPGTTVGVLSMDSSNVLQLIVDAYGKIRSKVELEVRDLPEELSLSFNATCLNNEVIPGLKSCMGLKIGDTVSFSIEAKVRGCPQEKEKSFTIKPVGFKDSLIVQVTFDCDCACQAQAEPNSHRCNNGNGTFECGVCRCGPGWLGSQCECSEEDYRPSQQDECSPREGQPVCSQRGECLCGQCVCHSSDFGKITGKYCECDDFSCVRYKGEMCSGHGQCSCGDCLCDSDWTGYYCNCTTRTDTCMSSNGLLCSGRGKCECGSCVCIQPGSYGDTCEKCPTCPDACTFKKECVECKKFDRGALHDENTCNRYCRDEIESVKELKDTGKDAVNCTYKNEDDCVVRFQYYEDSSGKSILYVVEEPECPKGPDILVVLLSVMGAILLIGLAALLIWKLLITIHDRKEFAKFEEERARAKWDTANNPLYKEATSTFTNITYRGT
# Sequence (P08514 32-887 limits assumed): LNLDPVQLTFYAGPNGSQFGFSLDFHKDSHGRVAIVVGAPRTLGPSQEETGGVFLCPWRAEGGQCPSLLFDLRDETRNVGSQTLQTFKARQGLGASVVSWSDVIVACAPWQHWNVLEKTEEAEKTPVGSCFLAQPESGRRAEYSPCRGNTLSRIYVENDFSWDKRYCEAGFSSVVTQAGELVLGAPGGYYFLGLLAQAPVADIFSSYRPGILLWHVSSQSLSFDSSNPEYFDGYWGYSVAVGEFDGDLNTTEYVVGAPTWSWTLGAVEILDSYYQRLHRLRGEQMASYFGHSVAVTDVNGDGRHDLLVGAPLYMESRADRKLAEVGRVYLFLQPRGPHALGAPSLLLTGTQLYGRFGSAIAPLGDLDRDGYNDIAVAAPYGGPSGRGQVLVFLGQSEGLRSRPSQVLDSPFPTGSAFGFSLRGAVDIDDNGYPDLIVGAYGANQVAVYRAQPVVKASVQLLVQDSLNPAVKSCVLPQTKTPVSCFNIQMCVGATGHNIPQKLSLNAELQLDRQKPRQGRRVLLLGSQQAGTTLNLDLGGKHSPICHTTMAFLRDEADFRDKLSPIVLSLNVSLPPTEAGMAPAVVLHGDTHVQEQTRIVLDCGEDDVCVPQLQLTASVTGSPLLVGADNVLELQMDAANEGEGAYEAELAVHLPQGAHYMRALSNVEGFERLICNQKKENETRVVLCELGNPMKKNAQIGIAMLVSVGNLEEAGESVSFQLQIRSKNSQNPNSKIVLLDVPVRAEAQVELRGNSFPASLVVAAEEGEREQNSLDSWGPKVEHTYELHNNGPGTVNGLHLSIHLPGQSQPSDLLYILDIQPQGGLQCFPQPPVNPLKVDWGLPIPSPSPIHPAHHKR
# Sequence (P08514 891-1039 limits assumed): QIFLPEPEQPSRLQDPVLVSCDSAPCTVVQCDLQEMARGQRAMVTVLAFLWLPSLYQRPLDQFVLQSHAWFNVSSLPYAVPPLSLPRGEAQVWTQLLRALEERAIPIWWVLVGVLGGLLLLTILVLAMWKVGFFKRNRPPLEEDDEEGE
# protocol.details: Binding affinity to human fibrinogen receptor
Field: numeric (nM). Do not append units.

input: Retrieve IC50 on Integrin alpha-IIb/beta-3 (Homo sapiens, UniProt P05106+P08514); query CCC(NC(=O)c1ccc(C(=N)N)cc1F)C(C)(C)C(=O)N1CCC(CC(=O)O)CC1 (stereo not drawn)
output: 2.7

input: Retrieve IC50 on Integrin alpha-IIb/beta-3 (Homo sapiens, UniProt P05106+P08514); query CCCC(NC(=O)c1ccc(C(=N)N)cc1)C(C)(C)C(=O)N1CCC(CC(=O)O)CC1 (stereo not drawn)
output: 5.1

input: Retrieve IC50 on Integrin alpha-IIb/beta-3 (Homo sapiens, UniProt P05106+P08514); query CC(NC(=O)c1ccc(C(=N)N)cc1)C(C)(C)C(=O)N1CCC(CC(=O)O)CC1 (stereo not drawn)
output: 5.3

input: Retrieve IC50 on Integrin alpha-IIb/beta-3 (Homo sapiens, UniProt P05106+P08514); query CCOC(=O)CC1CCN(C(=O)C(C)(C)C(CC)NC(=O)c2ccc(C(=N)N3CCCC3)cc2F)CC1 (stereo not drawn)
output: 7

input: Retrieve IC50 on Integrin alpha-IIb/beta-3 (Homo sapiens, UniProt P05106+P08514); query CCOC(=O)CC1CCN(C(=O)C(C)(C)C(CC)NC(=O)c2ccc(C(=N)N3CCN(c4ccc(F)cc4)CC3)cc2F)CC1 (stereo not drawn)
output: 5.6

input: Retrieve IC50 on Integrin alpha-IIb/beta-3 (Homo sapiens, UniProt P05106+P08514); query CCCCC(NC(=O)c1ccc(C(=N)N)cc1F)C(C)(C)C(=O)N1CCC(CC(=O)O)CC1 (stereo not drawn)
output: 5.7

input: Retrieve IC50 on Integrin alpha-IIb/beta-3 (Homo sapiens, UniProt P05106+P08514); query C#CCN(C(=O)c1ccc(C(=N)N)cc1)C(CCCC)C(C)(C)C(=O)N1CCC(CC(=O)O)CC1 (stereo not drawn)
output: 363

input: Retrieve IC50 on Integrin alpha-IIb/beta-3 (Homo sapiens, UniProt P05106+P08514); query CCOC(=O)CC1CCN(C(=O)C(C)(C)C(CC)NC(=O)c2ccc(C(=N)N3CCOCC3)cc2F)CC1 (stereo not drawn)
output: 4

----------
Exercise: state measured Cmax for each of the compounds provided.
# protocol.details: Cmax in rat (PO dose)
# Assay type: ADME, organism-based
# Design: route oral
# condition.info: in vivo
Field: numeric (ng/mL). Do not append units.

input: Kindly indicate its recorded Cmax. Item: CCOC(=O)CC1CCN(C(=O)C(C)(C)C(CC)NC(=O)c2ccc(C(=N)N3CCN(C)CC3)cc2F)CC1 (stereo not drawn)
output: 392

input: Kindly indicate its recorded Cmax. Item: CCOC(=O)CC1CCN(C(=O)C(C)(C)C(CC)NC(=O)c2ccc(C(=N)N)cc2F)CC1 (stereo not drawn)
output: 90

input: Kindly indicate its recorded Cmax. Item: CCOC(=O)CC1CCN(C(=O)C(C)(C)C(CC)NC(=O)c2ccc(C(=N)N3CCSC3)cc2F)CC1 (stereo not drawn)
output: 1210

----------
# protocol.details: Elimination T1/2 in Guinea pig (IV dose)
# condition.info: in vivo, read-out: T1/2 beta
Exercise: state measured log10 of half-life for each of the compounds provided.
Recorded half-life (log10, h)

input: Kindly indicate its recorded log10 of half-life. Item: CCOC(=O)CC1CCN(C(=O)C(C)(C)C(CC)NC(=O)c2ccc(C(=N)N3CCSC3)cc2F)CC1 (stereo not drawn)
output: 0.26

input: Kindly indicate its recorded log10 of half-life. Item: CCOC(=O)CC1CCN(C(=O)C(C)(C)C(CC)NC(=O)c2ccc(C(=N)N3CCN(c4ccc(F)cc4)CC3)cc2F)CC1 (stereo not drawn)
output: -0.38

input: Kindly indicate its recorded log10 of half-life. Item: CCOC(=O)CC1CCN(C(=O)C(C)(C)C(CC)NC(=O)c2ccc(C(=N)N3CCCC3)cc2F)CC1 (stereo not drawn)
output: 0.32

input: Kindly indicate its recorded log10 of half-life. Item: CC(C)C(NC(=O)c1ccc(C(=N)N)cc1)C(C)(C)C(=O)N1CCC(CC(=O)O)CC1 (stereo not drawn)
output: -0.10

input: Kindly indicate its recorded log10 of half-life. Item: CCOC(=O)CC1CCN(C(=O)C(C)(C)C(CC)NC(=O)c2ccc(C(=N)N3CCOCC3)cc2F)CC1 (stereo not drawn)
output: 0.66

input: Kindly indicate its recorded log10 of half-life. Item: CC(NC(=O)c1ccc(C(=N)N)cc1)C(C)(C)C(=O)N1CCC(CC(=O)O)CC1 (stereo not drawn)
output: -0.05

input: Kindly indicate its recorded log10 of half-life. Item: CC(NC(=O)c1ccc(C(=N)N)cc1F)C(C)(C)C(=O)N1CCC(CC(=O)O)CC1 (stereo not drawn)
output: 0.15

input: Kindly indicate its recorded log10 of half-life. Item: CC(C)(C(=O)N1CCC(CC(=O)O)CC1)C(NC(=O)c1ccc(C(=N)N)cc1)c1ccc2ccccc2c1 (stereo not drawn)
output: -0.07

----------
# protocol.details: Cmax in rat (PO dose)
# Assay type: ADME, organism-based
# Parameters: route oral
# condition.info: in vivo
Exercise: state measured Cmax for each of the molecules provided.
Field: numeric (ng/mL). Do not append units.

input: Kindly indicate its recorded Cmax. Item: CCOC(=O)CC1CCN(C(=O)C(C)(C)C(CC)NC(=O)c2ccc(C(=N)N3CCCC3)cc2F)CC1 (centres undefined)
output: 194

input: Kindly indicate its recorded Cmax. Item: CCOC(=O)CC1CCN(C(=O)C(C)(C)C(CC)NC(=O)c2ccc(C(=N)N3CCC(O)CC3)cc2F)CC1 (centres undefined)
output: 290

input: Kindly indicate its recorded Cmax. Item: CCOC(=O)CC1CCN(C(=O)C(C)(C)C(CC)NC(=O)c2ccc(C(=N)N3CCOCC3)cc2F)CC1 (centres undefined)
output: 922

input: Kindly indicate its recorded Cmax. Item: CCOC(=O)CC1CCN(C(=O)C(C)(C)C(CC)NC(=O)c2ccc(C(=N)N3CCN(c4ccc(F)cc4)CC3)cc2F)CC1 (centres undefined)
output: 232

----------
# protocol.details: Elimination T1/2 in Guinea pig (IV dose)
# condition.info: in vivo
readout.label: half-life (min)
Field: numeric (min). Do not append units.

input: Kindly indicate its recorded half-life. Item: CC(C)(C(=O)N1CCC(CC(=O)O)CC1)C(NC(=O)c1ccc(C(=N)N)cc1)c1ccccc1 (stereo unspecified)
output: 32
